TARGET_UNDER_TEST: m-CLR:m-RAMP1 (Mus musculus, UniProt Q9R1W5+Q9WTJ5)
Sequence (Q9R1W5 23-463): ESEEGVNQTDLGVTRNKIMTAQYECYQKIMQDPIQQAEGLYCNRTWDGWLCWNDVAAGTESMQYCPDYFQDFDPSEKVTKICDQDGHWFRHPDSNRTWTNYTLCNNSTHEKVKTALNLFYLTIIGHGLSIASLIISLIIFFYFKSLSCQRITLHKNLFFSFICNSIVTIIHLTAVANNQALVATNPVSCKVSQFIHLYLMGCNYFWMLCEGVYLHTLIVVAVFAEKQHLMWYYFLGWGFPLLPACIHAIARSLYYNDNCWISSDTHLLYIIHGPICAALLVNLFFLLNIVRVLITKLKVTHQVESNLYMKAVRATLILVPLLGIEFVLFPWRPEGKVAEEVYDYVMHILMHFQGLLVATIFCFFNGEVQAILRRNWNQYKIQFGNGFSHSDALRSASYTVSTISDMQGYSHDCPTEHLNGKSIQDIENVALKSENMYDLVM
Sequence (Q9WTJ5 27-148): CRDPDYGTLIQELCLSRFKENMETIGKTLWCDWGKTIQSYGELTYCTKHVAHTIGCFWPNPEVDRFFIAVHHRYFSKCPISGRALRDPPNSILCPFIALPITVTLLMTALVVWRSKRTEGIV
TEST_METHOD_NOTES: cAMP production, agonist concentration-response, transfected Cos7 cells
Format: cell-based
DETAILS: SEM
Positions of bridges follow the written chain, without caps; N, C: chain ends. No end group written: not given here.
# EC50 annotations
MEASUREMENT_KIND: EC50 (nM)

INSERT INTO results (substance, recorded_measurement) VALUES
  ('YRQSMNQGSRSNGCRFGTCTFQKLAHQIYQLTDKDKDGMAPRNKISPQGY-NH2 (disulfide 14-19) [m-AM]', 6.61),
  ('PHAQLLRVGCVLGTCQVQNLSHRLWQLVRPAGRRDSAPVDPSSPHSY-NH2 (disulfide 10-15) [m-AM2_47]', 4.47);

====

TARGET_UNDER_TEST: m-CTR:m-RAMP3 (Mus musculus, UniProt Q60755+Q9WUP1)
Sequence (Q60755 42-496 isoform Q60755-2 limits assumed, one chain of several): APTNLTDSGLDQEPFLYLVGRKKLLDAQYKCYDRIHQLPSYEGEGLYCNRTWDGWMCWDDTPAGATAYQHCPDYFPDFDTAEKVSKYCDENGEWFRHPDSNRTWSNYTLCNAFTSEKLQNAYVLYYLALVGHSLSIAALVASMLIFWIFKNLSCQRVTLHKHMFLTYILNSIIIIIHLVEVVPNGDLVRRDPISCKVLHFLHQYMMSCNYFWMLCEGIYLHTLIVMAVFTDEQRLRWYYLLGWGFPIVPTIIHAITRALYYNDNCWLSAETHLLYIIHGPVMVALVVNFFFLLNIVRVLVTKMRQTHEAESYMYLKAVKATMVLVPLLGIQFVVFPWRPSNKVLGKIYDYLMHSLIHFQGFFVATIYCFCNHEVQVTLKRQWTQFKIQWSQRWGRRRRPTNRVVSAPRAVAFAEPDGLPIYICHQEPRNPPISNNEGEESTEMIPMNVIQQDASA
TEST_METHOD_NOTES: cAMP production, agonist concentration-response, transfected Cos7 cells
Type: cell-based
DETAILS: SEM
pEC50: −log10 of the molar value. Positions of bridges follow the written chain, without caps; N, C: chain ends. No end group written: not given here.
MEASUREMENT_KIND: pEC50

INSERT INTO results (substance, recorded_measurement) VALUES
  ('YRQSMNQGSRSNGCRFGTCTFQKLAHQIYQLTDKDKDGMAPRNKISPQGY-NH2 (disulfide 14-19) [m-AM]', 8.45),
  ('PHAQLLRVGCVLGTCQVQNLSHRLWQLVRPAGRRDSAPVDPSSPHSY-NH2 (disulfide 10-15) [m-AM2_47]', 8.67);

====

TARGET_UNDER_TEST: m-CLR:m-RAMP3 (Mus musculus, UniProt Q9R1W5+Q9WUP1)
Sequence (Q9R1W5 23-463): as the sequence (Q9R1W5 23-463) above
Sequence (Q9WUP1 23-147): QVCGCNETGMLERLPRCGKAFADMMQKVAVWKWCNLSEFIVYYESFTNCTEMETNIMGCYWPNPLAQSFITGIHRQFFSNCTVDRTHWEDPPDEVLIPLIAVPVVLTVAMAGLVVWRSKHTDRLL
TEST_METHOD_NOTES: cAMP production, agonist concentration-response, transfected Cos7 cells
Type: cell-based
DETAILS: SEM
Positions of bridges follow the written chain, without caps; N, C: chain ends. No end group written: not given here.
MEASUREMENT_KIND: EC50 (nM)

INSERT INTO assay_data (substance, measurement_kind, readout_units, recorded_measurement) VALUES
  ('PHAQLLRVGCVLGTCQVQNLSHRLWQLVRPAGRRDSAPVDPSSPHSY-NH2 (disulfide 10-15) [m-AM2_47]', 'EC50', 'nM', 1.32),
  ('YRQSMNQGSRSNGCRFGTCTFQKLAHQIYQLTDKDKDGMAPRNKISPQGY-NH2 (disulfide 14-19) [m-AM]', 'EC50', 'nM', 0.468);

The measured values listed here are drawn from paper PMC8776895.
